- Measurement Target: T1, Ax1 protein, extracellular domain (human, UniProt P30530 26-451)
- T1 construct: extracellular domain; also called Axl; Ark
- T1 sequence (looked up): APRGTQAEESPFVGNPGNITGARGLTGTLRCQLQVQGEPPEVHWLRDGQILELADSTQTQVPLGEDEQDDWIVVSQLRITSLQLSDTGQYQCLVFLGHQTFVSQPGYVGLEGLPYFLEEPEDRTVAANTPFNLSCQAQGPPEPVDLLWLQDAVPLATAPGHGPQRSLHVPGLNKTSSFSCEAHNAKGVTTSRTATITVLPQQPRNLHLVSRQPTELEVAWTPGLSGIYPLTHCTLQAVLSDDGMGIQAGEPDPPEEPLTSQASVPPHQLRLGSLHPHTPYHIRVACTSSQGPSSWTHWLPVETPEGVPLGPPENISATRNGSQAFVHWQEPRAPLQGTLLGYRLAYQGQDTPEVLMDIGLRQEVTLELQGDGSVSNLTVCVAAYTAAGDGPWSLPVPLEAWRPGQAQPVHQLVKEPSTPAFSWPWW
- Experiment: ELISA, mutant diluted 1:9
- Excerpt: The DNA encoding the wild-type antibody was evolved to generate a mutant antibody library using Comprehensive Positional Evolution (CPE), which each position in the template antibody is randomized one at a time. Each mutant antibody in the library has only one single point mutation. The mutant antibodies in the library were generated by simultaneously screening for selective binding affinity to Ax1 at pH 6.0 over pH 7.4 by ELISA. Two mutant antibody dilutions were used: 1:3 and 1:9 dilutions.
Measurement Type: Affinity ELISA CPE mutant ratio (1:9, pH 6.0/7.4)
Give your answer as a number; write no unit.

| Binder | Assay Result |
| --- | --- |
| LC-A051N (antibody, V domains shown, CPE single point mutant) VH: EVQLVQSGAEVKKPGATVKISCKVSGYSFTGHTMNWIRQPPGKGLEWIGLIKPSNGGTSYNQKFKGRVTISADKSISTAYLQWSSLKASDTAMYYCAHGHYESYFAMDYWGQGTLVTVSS VL: DIQMTQSPSSLSASVGDRVTITCKASQDVSSAVAWYQQKPGQAPRLLIYWNSTRHTGVPSRFSGSGSGTEFTLTISSLQPDDFATYYCQEHFSTPLTFGQGTKVEIK | 2.2 |

Which Affinity ELISA CPE mutant ratio (1:9, pH 6.0/7.4) value is on record for HC-F105V (antibody, V domains shown, CPE single point mutant) VH: EVQLVQSGAEVKKPGATVKISCKVSGYSFTGHTMNWIRQPPGKGLEWIGLIKPSNGGTSYNQKFKGRVTISADKSISTAYLQWSSLKASDTAMYYCAHGHYESYVAMDYWGQGTLVTVSS VL: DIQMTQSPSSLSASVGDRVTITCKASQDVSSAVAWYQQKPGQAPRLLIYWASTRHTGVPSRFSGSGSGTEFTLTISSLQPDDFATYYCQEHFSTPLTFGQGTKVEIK ?
2.8

Which Affinity ELISA CPE mutant ratio (1:9, pH 6.0/7.4) value is on record for HC-F105N (antibody, V domains shown, CPE single point mutant) VH: EVQLVQSGAEVKKPGATVKISCKVSGYSFTGHTMNWIRQPPGKGLEWIGLIKPSNGGTSYNQKFKGRVTISADKSISTAYLQWSSLKASDTAMYYCAHGHYESYNAMDYWGQGTLVTVSS VL: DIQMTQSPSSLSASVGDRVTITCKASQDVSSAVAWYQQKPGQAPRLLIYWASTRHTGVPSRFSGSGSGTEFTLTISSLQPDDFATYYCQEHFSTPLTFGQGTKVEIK ?
2.64
